src = patent US12018066

target: SARS-CoV-2 spike protein on whole SARS-CoV-2 virus (SARS-CoV-2, UniProt P0DTC2 14-1273); assay: cell-based or functional assay
Item-by-item account of Nmax (%), neutralization maximum
Numeric only. Scale: %

S01 IgG1 (antibody, V domains shown, also called 501) VH: QVQLVESGGGLVKPGGSLRLSCAASGFTVGSNYMSWVRQAPGKGLEWVSVIYSGGSTYYADSVKGRFTISRDNSKNTLYLQMNSLRAEDTAVYYCARGSSGAWYFDLWGRGTLVTVSS VL: EIVMTQSPSSLSASVGDSVTITCQASQDISNYLNWYQQKPGKAPKLLIYDASNLETGVPSRFSGGGSGTDFTLTITSLQPEDIATYYCQQYDNFPPTFGPGTKVDIK :: 106
H01 IgG1 (antibody, V domains shown, also called H1) VH: QVTLKESGPVLVKPTETLTLTCTVSGFSLSNARMGVSWIRQPPGKALEWLAHIFSNGEKSYSTSLKSRLTISKDTSKSQVVLTMTNMDPVDTATYYCARTLDYYDSSGYLVGGAFDIWGQGTMVTVSS VL: QPGLTQPPSVSLAPGQTARITCGGNNIGSKSVHWYQQKPGQAPVLVVYDDSDRPSGIPERFSGSNAGNTATLTISRVEAGDEADYYCQVWDSRSDQYVFGTRTKLTVL :: 87.7

[in] Looking for the measured Nmax (%), neutralization maximum of F07 IgG1 (antibody, V domains shown) VH: QVQLVQSGAEVKKPGSSVRVSCKVSGYTFTGYYMHWVRQAPGQGLEWMGIINPSGGSTSYAQKFQGRVTMTRDTSTSTVYMELSSLRSEDTAVYYCARVRVGASDAFDIWGQGTMVTVSS VL: SYVLTQPPSVSVAPGQTARITCGGNNIGSKSVHWYQQKPGQAPVLVVYDDSDRPSGIPERFSGSNSGNTATLIISRVEAGDEADYYCQVWDSSSVHYVFGTGTKLTVL , can you help?
[out] 74.7
